Species on record: Rattus norvegicus
Assay overview: Open TG-GATES - Regimen: Daily Repeat
Type: toxicity, organism-based, Sprague-Dawley
Design: regimen Daily Repeat, gender Male, age 6 weeks
Assay context: in vivo, po, 100 mg/kg, 72 h, tissue Plasma, route gavage, dose level Low, time 3 day
Parameter: IP
# do not omit the unit; it follows the number

Completed entries (count: 3):
• O=C(N[C@H](CO)[C@H](O)c1ccc([N+](=O)[O-])cc1)C(Cl)Cl = 6.8 mg/dL
• CCN1CCCC1CNC(=O)c1cc(S(N)(=O)=O)ccc1OC (centres undefined) [SULPIRIDE] = 7.4 mg/dL
• O=C(O)c1cccnc1 = 7.4 mg/dL

Assign IP to the following record: `CC(C)(S)[C@@H](N)C(=O)O`
7 mg/dL
